- tested.system: H+/K+ATPase (Oryctolagus cuniculus)
- Construct: The stomach tissue of the rabbit was separated; from tissue; host or cells: rabbit stomach (fundus) mucosa; membrane pellet obtained by differential and Ficoll centrifugation
- Sequence (P27112 whole entry): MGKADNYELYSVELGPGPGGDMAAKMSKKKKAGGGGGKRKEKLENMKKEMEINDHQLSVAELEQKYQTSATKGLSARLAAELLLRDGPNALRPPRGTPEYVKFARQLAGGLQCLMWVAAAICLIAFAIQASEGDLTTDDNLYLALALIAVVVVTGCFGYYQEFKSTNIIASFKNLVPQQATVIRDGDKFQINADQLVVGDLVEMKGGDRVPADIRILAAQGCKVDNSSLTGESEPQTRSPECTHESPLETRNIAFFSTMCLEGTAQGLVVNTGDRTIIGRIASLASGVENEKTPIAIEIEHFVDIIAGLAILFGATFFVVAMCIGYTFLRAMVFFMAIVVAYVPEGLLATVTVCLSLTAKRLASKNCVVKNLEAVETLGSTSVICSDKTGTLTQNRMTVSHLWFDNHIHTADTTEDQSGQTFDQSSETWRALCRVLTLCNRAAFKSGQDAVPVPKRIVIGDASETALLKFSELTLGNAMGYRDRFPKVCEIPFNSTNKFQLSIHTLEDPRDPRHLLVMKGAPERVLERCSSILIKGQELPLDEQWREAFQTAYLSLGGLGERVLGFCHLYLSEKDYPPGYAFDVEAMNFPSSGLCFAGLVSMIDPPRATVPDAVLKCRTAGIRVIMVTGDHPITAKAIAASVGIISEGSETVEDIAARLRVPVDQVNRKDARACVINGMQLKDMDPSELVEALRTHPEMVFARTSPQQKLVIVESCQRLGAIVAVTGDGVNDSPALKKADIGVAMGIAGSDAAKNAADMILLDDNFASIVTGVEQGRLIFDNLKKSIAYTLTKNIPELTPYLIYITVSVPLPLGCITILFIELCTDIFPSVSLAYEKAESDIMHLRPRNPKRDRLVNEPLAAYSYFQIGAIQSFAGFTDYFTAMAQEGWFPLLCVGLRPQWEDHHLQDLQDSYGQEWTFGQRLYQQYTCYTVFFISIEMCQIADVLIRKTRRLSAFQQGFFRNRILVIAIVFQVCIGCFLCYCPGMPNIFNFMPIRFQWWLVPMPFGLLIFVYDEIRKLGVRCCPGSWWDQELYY
- Sequence (P18597 whole entry partner): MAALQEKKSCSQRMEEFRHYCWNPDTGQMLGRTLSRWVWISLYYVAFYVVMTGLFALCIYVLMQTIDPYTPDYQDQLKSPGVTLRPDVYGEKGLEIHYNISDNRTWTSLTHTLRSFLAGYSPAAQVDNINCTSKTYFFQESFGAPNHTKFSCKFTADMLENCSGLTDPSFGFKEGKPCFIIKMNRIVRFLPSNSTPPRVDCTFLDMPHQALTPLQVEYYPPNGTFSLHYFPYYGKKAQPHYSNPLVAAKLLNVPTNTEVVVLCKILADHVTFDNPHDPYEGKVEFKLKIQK
- test.description: determination of compounds' inhibition of H+/K+ATPase enzyme activity (malachite green)
- Format: biochemical
- condition.set: enzyme extracted from rabbit stomach mucosa; 500 μM ATP; pH 6.5; 37° C.; OD 620 nm; read-out: IC50(μM) inhibition rate (IC50) of H+/K+ATPase enzyme activity
Reported IC50 values for the following molecules.
A number alone suffices; assume µM.

Input: Entry `CN1Cc2nn(Cc3cccnc3)c(-c3ccccc3F)c2C1` has what IC50?
Output: 0.674

***
Input: I would be grateful if you could share the reported IC50 for `CN1Cc2nn(Cc3cccnc3)c(-c3ccc4occc4c3)c2C1` .
Output: 1.38

Input: # input molecule: `CN1Cc2nn(Cc3cccnc3)c(-c3ccc4[nH]cnc4c3)c2C1` ; wanted: its IC50
Output: 24

Input: Given the entry `CN1Cc2nn(Cc3cccnc3)c(-c3ccc4c(c3)CCO4)c2C1` , report its measured IC50.
Output: 3.55

Input: Requested read-out: IC50. Entry: `COc1ccc(Cn2nc3c(c2-c2ccccc2F)CN(C)C3)cn1`
Output: 0.365
